# target of assay: Caspase recruitment domain-containing protein 9 (Homo sapiens) + E3 ubiquitin-protein ligase TRIM62 (Homo sapiens) (UniProt Q9H257+Q9BVG3)
# Sequence (Q9BVG3 whole entry, looked up, the tested form may be a part): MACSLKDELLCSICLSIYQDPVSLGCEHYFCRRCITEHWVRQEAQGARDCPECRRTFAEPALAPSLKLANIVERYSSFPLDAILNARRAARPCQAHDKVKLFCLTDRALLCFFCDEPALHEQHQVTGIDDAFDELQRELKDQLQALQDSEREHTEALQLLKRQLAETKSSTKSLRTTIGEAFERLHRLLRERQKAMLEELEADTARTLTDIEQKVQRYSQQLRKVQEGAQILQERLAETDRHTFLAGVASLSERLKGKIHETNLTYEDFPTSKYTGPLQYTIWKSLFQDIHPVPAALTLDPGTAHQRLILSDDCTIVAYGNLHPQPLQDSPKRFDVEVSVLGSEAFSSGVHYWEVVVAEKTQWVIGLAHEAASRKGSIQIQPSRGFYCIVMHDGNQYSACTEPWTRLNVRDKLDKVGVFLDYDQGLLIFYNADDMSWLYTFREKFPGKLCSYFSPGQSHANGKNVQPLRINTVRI
# Sequence (Q9H257 whole entry, looked up, the tested form may be a part): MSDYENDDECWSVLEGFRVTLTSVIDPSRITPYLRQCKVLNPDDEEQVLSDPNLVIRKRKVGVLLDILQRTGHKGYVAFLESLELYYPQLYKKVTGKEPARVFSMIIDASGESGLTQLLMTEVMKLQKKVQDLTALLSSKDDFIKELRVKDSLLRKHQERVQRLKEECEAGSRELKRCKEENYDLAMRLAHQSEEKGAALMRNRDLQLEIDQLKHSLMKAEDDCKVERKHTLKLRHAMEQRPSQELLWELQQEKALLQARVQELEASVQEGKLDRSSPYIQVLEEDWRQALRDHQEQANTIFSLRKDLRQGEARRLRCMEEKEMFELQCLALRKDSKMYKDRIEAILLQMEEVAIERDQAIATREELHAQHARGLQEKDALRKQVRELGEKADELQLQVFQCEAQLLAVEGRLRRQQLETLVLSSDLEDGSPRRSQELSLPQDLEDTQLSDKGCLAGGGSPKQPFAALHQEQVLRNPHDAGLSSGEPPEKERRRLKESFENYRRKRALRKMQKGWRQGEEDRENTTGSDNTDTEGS
# assay text: disruptors of CARD9-TRIM62 binding, primary screen, cell lysate, HEK293FT lysates, Luminex bead ELISA (AID 1259341);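 note: PE anti-Flag signal of Flag-CARD9 captured by myc-TRIM62 beads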
# settings: PE fluorescence, stronger effect = lower value, concentration not given here
Calls of active or inactive are those of the source.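 Rule for the calls: active = activity change under -35% in any replicate well, with more than 20 beads read in that well; inactive = the rest.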
Collected activity change, negative = inhibition values appear next to each entry.

activity change, negative = inhibition lookup needed for CC1(C)Cc2c(c(N3CCOCC3)nc3sc(C(=O)NCc4ccco4)c(N)c23)CO1 , thanks.
-2.46% (inactive)

What does the data say about its activity change, negative = inhibition? Entry: CCN1CCN(C(=O)c2cc(-c3ccco3)nc3ccccc23)CC1
4.84% (inactive)

Name the recorded activity change, negative = inhibition for COc1ccc(-c2nc(C)c(C(C)=O)n2O)cc1OC .
-2.22% (inactive)

Can you share its activity change, negative = inhibition? I mean this compound: O=C1c2ccccc2S(=O)(=O)N1Cc1cccc(S(=O)(=O)N2CCOCC2)c1
5.11% (inactive)

Please give the measured activity change, negative = inhibition for this compound: O=C(Nc1nncs1)c1cc(-c2ccco2)nc2ccccc12
-5.26% (inactive)

# get_value(readout='activity change, negative = inhibition', item= O=c1oc(/C=C/c2ccc([N+](=O)[O-])s2)nc2ccccc12 )
-7% (inactive)

Item under review: CC(C)C(CC(=O)NCc1ccco1)c1ccco1 (configuration not stated) . Reported activity change, negative = inhibition?
-8.54% (inactive)

I am curious: what activity change, negative = inhibition value has been reported for O=C1c2ccccc2-c2nc3ccccc3nc21 ?
-4.55% (inactive)

What value of measured activity change, negative = inhibition is listed for O=C1c2cccnc2C(=O)N1Cc1ccc(S(=O)(=O)NCc2ccco2)cc1 ?
29.2% (inactive)

Item O=C(Nc1nc(-c2nc3ccccc3s2)cs1)c1ccco1 has what recorded activity change, negative = inhibition?
1.21% (inactive)

Using the record for c1coc(-c2cn3ccc4ccccc4c3n2)c1 , report its activity change, negative = inhibition.
-1.55% (inactive)

Returns the measured activity change, negative = inhibition for the input compound. Input: Cc1[nH]c2ccc(Cl)cc2c(=O)c1CN1CCCC1
0.531% (inactive)

====

# target of assay: Caspase recruitment domain-containing protein 9 (Homo sapiens) + E3 ubiquitin-protein ligase TRIM62 (Homo sapiens) (UniProt Q9H257+Q9BVG3)
# assay text: disruptors of CARD9-TRIM62 binding, primary screen, cell lysate, HEK293FT lysates, Luminex bead ELISA (AID 1259341);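 note: PE anti-Flag signal of Flag-CARD9 captured by myc-TRIM62 beads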
# settings: PE fluorescence, concentration not given here
The source made the active and inactive calls.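 Rule for the calls: active = activity change under -35% in any replicate well, with more than 20 beads read in that well; inactive = the rest.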
The reply should name one outcome from label 1 for active, label 0 for inactive

Example entries and their recorded answers appear below.
compound: COc1ccc(S(=O)(=O)N2CCN(C(=O)c3cc4c(s3)CCC4)CC2)cc1
qualitative label: label 0
--
compound: O=C(O)C(c1ccccc1)C(c1ccccc1)c1ccccc1 (stereo not drawn)
qualitative label: label 0
--
compound: NC(=O)c1ccc(CN2C(=O)C3(CCNCC3)Nc3ccccc32)cc1
qualitative label: label 0
--
compound: COc1ccc(F)c(CN2C[C@H]3CC[C@@H]2CN(Cc2cscn2)C3)c1
qualitative label: label 0

Dear all, I need the recorded test outcome for Cc1ccc(-c2nn(-c3ccccc3)cc2CN(Cc2ccccc2)C(=O)CCC(=O)O)o1 , thank you.
label 0

Would you mind telling me which call this test gave O=C(NCc1cccnc1)c1ccccc1-c1nc(-c2ccccc2)no1 ?
label 0

In this assay, the call recorded for C(=C\c1ccco1)/c1nc2ccccc2[nH]1 was what?
label 0

What classification did O=C(Cc1cccs1)Nc1nnc(Cc2ccccc2)s1 end up with in this test?
label 0

# outcome recorded in this test, key = C=CC(=O)N1CCCC2(CCN(CCN3CCCC3)C2=O)C1 (stereo not drawn)
label 1

What did this assay record as the result for O=C(CCN1CCOCC1)c1ccc2c(c1)OCCO2 ?
label 0

Each compound tested received a call. Report the one for N#Cc1c2c(c(NCc3ccco3)n3c1nc1ccccc13)CCC2 .
label 0
